Every entry's value here was drawn from ChEMBL document CHEMBL1201862.

Molecular target: Ataxin-2 (Homo sapiens) (UniProt Q99700)
Sequence (Q99700 whole entry): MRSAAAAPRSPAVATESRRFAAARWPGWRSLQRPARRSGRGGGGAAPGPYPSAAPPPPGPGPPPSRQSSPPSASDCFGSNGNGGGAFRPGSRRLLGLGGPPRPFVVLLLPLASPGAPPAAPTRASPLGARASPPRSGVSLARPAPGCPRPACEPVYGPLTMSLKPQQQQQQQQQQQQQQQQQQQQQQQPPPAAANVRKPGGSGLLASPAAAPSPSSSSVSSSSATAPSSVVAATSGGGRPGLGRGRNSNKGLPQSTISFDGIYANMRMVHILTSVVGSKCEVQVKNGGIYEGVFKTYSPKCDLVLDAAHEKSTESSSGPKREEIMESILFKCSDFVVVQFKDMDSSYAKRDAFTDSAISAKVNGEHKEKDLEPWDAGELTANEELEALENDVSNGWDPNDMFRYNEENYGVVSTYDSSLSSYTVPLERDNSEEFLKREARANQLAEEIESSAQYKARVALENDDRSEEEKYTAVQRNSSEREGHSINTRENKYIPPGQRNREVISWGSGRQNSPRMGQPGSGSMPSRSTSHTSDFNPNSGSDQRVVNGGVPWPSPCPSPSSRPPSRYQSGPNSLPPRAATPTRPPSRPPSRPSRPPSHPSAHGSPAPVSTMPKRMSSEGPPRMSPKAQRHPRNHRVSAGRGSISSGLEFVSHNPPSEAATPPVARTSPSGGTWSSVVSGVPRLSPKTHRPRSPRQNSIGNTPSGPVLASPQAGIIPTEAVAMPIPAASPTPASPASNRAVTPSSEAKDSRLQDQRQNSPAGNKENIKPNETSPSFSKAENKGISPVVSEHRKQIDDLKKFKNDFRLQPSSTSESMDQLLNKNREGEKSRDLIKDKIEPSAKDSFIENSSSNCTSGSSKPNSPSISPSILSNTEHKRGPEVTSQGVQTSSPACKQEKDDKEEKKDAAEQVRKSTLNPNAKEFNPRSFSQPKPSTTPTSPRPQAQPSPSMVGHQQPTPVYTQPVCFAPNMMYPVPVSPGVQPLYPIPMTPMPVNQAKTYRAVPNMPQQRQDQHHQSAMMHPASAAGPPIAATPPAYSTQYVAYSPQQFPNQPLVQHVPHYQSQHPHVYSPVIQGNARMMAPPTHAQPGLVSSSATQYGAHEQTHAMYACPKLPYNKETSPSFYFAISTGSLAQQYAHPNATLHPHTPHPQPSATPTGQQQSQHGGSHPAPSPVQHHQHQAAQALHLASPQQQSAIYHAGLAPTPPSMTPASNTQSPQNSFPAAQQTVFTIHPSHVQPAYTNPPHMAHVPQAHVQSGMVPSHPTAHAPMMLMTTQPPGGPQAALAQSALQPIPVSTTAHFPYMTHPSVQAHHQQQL
Test: qHTS for Inhibitors of ATXN expression.
Assay type: functional
Screen size: about 400,000 compounds; about 2,100 (0.53%) were called active. Roughly 14% stayed inconclusive and do not appear here. The sample as a whole holds a higher share of actives than the screen did.
Readout: Potency

[
  {
    "Molecule": "CCOC(=O)C1CCN(C(=O)Cn2c(=O)c3cccn3c3cccnc32)CC1",
    "Potency": "inactive"
  },
  {
    "Molecule": "Cn1c(C(=O)NCC2CCCO2)cc2c(=O)n3ccccc3nc21 (stereo not given)",
    "Potency": "inactive"
  },
  {
    "Molecule": "O=C(Cn1sc2ccccc2c1=O)Nc1ccc(F)cc1",
    "Potency": "31.6 µM (active)"
  },
  {
    "Molecule": "CC1(C)Cc2c(cnn2-c2cccc(F)c2)C(NC(=O)CSc2ccccn2)C1 (stereo not given)",
    "Potency": "inactive"
  }
]

Required: Potency, one value per molecule below.
1. Cc1ccc(C)c(OCCn2c(C3CC(=O)N(Cc4ccc(F)cc4)C3)nc3ccccc32)c1 (stereo not given)
2. CCS(=O)(=O)c1ncc(Cl)c(C(=O)Nc2ccccc2OC)n1
3. Cc1ccc2nc3c(cc(C(=O)NCC4CCCO4)c(=N)n3CC3CCCO3)c(=O)n2c1 (stereo not given)
4. Cc1cc(C)nc(Sc2ncnc(N)c2[N+](=O)[O-])n1
5. CC(C)c1ccc(NC2=NC(=N)c3ccccc32)cc1
6. CCc1ccc(C2=CC(c3cccc(Br)c3)n3nnnc3N2)cc1 (stereo not given)
7. Nn1cnnc1SCC(=O)N1CCc2ccccc2C1

39.8 µM (active)
35.5 µM (active)
inactive
16.8 µM (active)
39.8 µM (active)
inactive
inactive

###

Molecular target: Ataxin-2 (Homo sapiens) (UniProt Q99700)
Assay: qHTS for Inhibitors of ATXN expression.
Type: functional
Hit rate of the full screen: of about 400,000 compounds, about 2,100 (0.53%) were called active. Inconclusive results (about 14%) are left out. The list comes from a sample in which actives are over-represented; it also holds close analogues and randomly drawn compounds.
Readout: Potency

Please review the entries below; each comes with its answer.
[
  {
    "Compound": "CCc1cc(=O)oc2c(CN3CCN(C)CC3)c(O)c(Cl)cc12",
    "Readout": "Potency",
    "Result": "inactive"
  },
  {
    "Compound": "COCCCn1c(=N)c(C(=O)NC2CCCC2)cc2c(=O)n3cc(C)ccc3nc21",
    "Readout": "Potency",
    "Result": "inactive"
  },
  {
    "Compound": "CCCN(CCC)Cc1c(C(=O)N/N=C/C(C)=C\\c2ccco2)nnn1-c1nonc1N",
    "Readout": "Potency",
    "Result": "25.1 µM (active)"
  },
  {
    "Compound": "CCc1ccccc1-n1c(N)c(C(=O)OC)c2nc3ccccc3nc21",
    "Readout": "Potency",
    "Result": "inactive"
  },
  {
    "Compound": "O=C(O)c1cc(-c2ccc(-c3ccc(F)cc3)o2)nc2ccccc12",
    "Readout": "Potency",
    "Result": "inactive"
  },
  {
    "Compound": "COC(=O)c1sc2ccccc2c1NC(=O)c1ccc(S(=O)(=O)N2CCCC(C)C2)cc1 (stereo not given)",
    "Readout": "Potency",
    "Result": "inactive"
  },
  {
    "Compound": "CCCCCCn1c(=O)n2n(c1=O)[C@@H]1CN(S(=O)(=O)c3ccc(C)cc3)C[C@]1(O)[C@@H](OC(=O)NCC1CCCCC1)C2",
    "Readout": "Potency",
    "Result": "31.6 µM (active)"
  },
  {
    "Compound": "O=C(C1=NN(c2ccccc2)C2C(=O)N(c3cccc(Cl)c3)C(=O)C12)c1ccccc1 (stereo not given)",
    "Readout": "Potency",
    "Result": "inactive"
  }
]

Batch of 6 compounds: report Potency for each.
1. CCCCNC(=O)c1cc2c(=O)n3cccc(C)c3nc2n(Cc2ccncc2)c1=N
2. Cc1ccccc1NC(=O)CN1C(=O)S/C(=C\c2ccc(-c3cccc(C(=O)O)c3C)o2)C1=O
3. CCOCCCn1c(=N)c(C(=O)NC2CCCC2)cc2c(=O)n3cc(C)ccc3nc21
4. O=[N+]([O-])c1ccc(CSc2ncnc3ccccc23)cc1
5. Cc1cc(Cl)cc(C)c1OCC(=O)NC1CCCCCC1
6. C/C(=N\Nc1nc2ccccc2[nH]1)c1ccc(Cl)s1

inactive
inactive
inactive
inactive
inactive
inactive

###

Target: Ataxin-2 (Homo sapiens) (UniProt Q99700)
Experiment: qHTS for Inhibitors of ATXN expression.
Assay type: functional
Screen size: about 400,000 compounds; about 2,100 (0.53%) were called active. About 14% were inconclusive and are not listed. How the calls were made is not given here. This is one part of a sample in which actives are shown more often than they occur.
Write down the outcome that applies. Available outcomes: y = active, n = inactive

A selection of reference data follows.
[
  {
    "Chemical String": "COc1ccccc1NC(=O)c1ccc(-n2ccnc2)c([N+](=O)[O-])c1",
    "Cat": "n"
  },
  {
    "Chemical String": "COC(=O)c1cccc(C(=O)NCc2nc(-c3cccc(NC(=O)c4ccoc4C)c3)oc2C)c1",
    "Cat": "y"
  },
  {
    "Chemical String": "CSc1ccccc1C(=O)NCc1nc(-c2cccc(NC(=O)c3ccoc3C)c2)oc1C",
    "Cat": "y"
  }
]

For this molecule, state the assay outcome: CCN(CC)c1c([N+](=O)[O-])c(=O)n(CC)c2ccccc12
n

Short answer needed: outcome of this test for Cn1c2ccccc2c(=O)c2ccc(F)cc21 ?
n

###

Molecular target: Ataxin-2 (Homo sapiens)
Experiment: qHTS for Inhibitors of ATXN expression.
Format: functional
Out of some 400,000 compounds screened, about 2,100 (0.53%) were called active. Inconclusive results (about 14%) are left out. The rule behind the calls is not given here. Many of the other results were omitted from the sample, so actives are more common in it than they were.
Use one of these outcomes when replying: active, inactive

[
  {
    "Compound": "CC(=O)c1ccc(N2C(=O)[C@@H]3[C@H](C2=O)[C@H]2c4ccccc4C=NN2[C@@H]3C(C)=O)cc1",
    "Cat": "inactive"
  }
]

Lab log entry: COC(=O)N/N=C/c1cccc(OC(=O)c2ccc3c(c2)OCO3)c1 — outcome as called in the assay?
inactive

Outcome logged for COc1ccc(Cn2c(C)nc3ccc([N+](=O)[O-])cc3c2=O)cc1 in this assay:
inactive

Hi, do you know how O=S(=O)(c1ccc(SCCOc2ccccc2)nc1)N1CCCC1 came out in this test?
inactive

Hi, sorry to bother you, what did the test record for C[C@]12CCCC[C@@H]1CC[C@@H]1[C@@H]2CC[C@@]2(C)[C@H]1CC[C@@]2(O)CNCCO ?
inactive

Answer briefly: the call reported for CC(=O)c1cn(Cc2ccccc2)c(=O)n(Cc2ccc(F)cc2)c1=O in this assay.
inactive

I'd appreciate the recorded outcome for N=C1c2c(cc(O)n3c2nc2ccccc23)CN1CCN1CCOCC1 from this test.
inactive

// param item: CN1CCN(C2Cc3ccccc3Sc3cc(C(F)(F)F)ccc32)CC1 (stereo not given) ; yields the recorded call
active

I would be grateful if you could indicate the recorded call for COc1ccc(Cn2c(C(=O)O)c(CNCc3ccc(C)o3)c3ccc(C)cc32)cc1 .
active

###

Biological target: Ataxin-2 (Homo sapiens)
Assay: qHTS for Inhibitors of ATXN expression.
Assay type: functional
In all, about 400,000 compounds went through this assay and about 2,100 (0.53%) were called active. About 14% were inconclusive and are not listed. The rule behind the calls is not given here. The entries come from a sample that favours actives as a whole.
In this exercise, the only acceptable responses are class 1 (active), class 0 (inactive)

Per the records of this test, what outcome belongs to COc1cc(/C=C2\CC/C(=C\c3cc(OC)c(O)c(OC)c3)C2=O)cc(OC)c1O ?
class 1

###

Biological target: Ataxin-2 (Homo sapiens)
Assay: qHTS for Inhibitors of ATXN expression.
Assay type: functional
Out of some 400,000 compounds screened, about 2,100 (0.53%) were called active. Another 14% or so got no clear call; they are omitted. How the calls were made is not given here. The sample holds actives, similar compounds and a random draw of the others, so the mix is not that of the screen.
Valid outcomes are listed here; reply with one: Yes = active, No = inactive

Here's what some known entries look like.
[
  {
    "Compound": "Cc1ccc(C2=NN=C(c3ccccc3)c3ncccc3N2)cc1",
    "Cat": "No"
  },
  {
    "Compound": "N#CC1=C(N)N2C(=C(C#N)C1c1cccc(Br)c1)Nc1ccccc12 (stereo unspecified)",
    "Cat": "No"
  },
  {
    "Compound": "COc1cc(OC)cc(N2C(=O)CSCC2=O)c1",
    "Cat": "No"
  },
  {
    "Compound": "COc1ccc2c(c1)C(=O)N(c1ccc(C)cc1C)C(=O)C2",
    "Cat": "Yes"
  },
  {
    "Compound": "CC1(Cc2cc(Cl)ccc2C(F)(F)F)C(=O)Nc2ccc(-c3ccc(F)c(Cl)c3)cc21 (stereo unspecified)",
    "Cat": "Yes"
  }
]

Now examine the next entry.
Lab log entry: Cc1ccc2nc3c(cc(C(=O)NCC4CCCO4)c(=N)n3C3CCCC3)c(=O)n2c1 (stereo unspecified) — outcome as called in the assay?
No
